- targetUnderTest: Syk (356-635 amino acids) catalytic domain (Homo sapiens (Human))
- testProtocol: Inhibition of enzymatic Syk kinase activity (radiometric)
- Type: biochemical
- conditionLabel: read-out: IC50 Syk
Counter-ions that a name gives are not always drawn.
measurementKind: IC50

compound=N#CCN1CCN(c2ccc(Nc3nc(N4CCCCCC4)nc4cn[nH]c(=O)c34)cc2)CC1 targetundertest="Syk (356-635 amino acids) catalytic domain (Homo sapiens (Human))" measurementkind=IC50 result="< 50 nM"
compound=N#CCC1CCN(c2nc(Nc3ccc(N4CCCN(CCO)CC4)cc3)c3c(=O)[nH]ncc3n2)CC1 targetundertest="Syk (356-635 amino acids) catalytic domain (Homo sapiens (Human))" measurementkind=IC50 result="< 10 nM"
compound=N#CCC1CCN(c2nc(Nc3ccc(CCO)cc3)c3c(=O)[nH]ncc3n2)CC1 targetundertest="Syk (356-635 amino acids) catalytic domain (Homo sapiens (Human))" measurementkind=IC50 result="< 50 nM"
compound="O=C(O)C1CC12CCN(c1ccc(Nc3nc(N4CCOCC4)nc4cn[nH]c(=O)c34)cc1)CC2 (stereo not shown)" targetundertest="Syk (356-635 amino acids) catalytic domain (Homo sapiens (Human))" measurementkind=IC50 result="< 100 nM"
compound="N#CCC1CCN(c2nc(Nc3ccc(N4CCCC(CO)C4)cc3)c3c(=O)[nH]ncc3n2)CC1 (stereo not shown)" targetundertest="Syk (356-635 amino acids) catalytic domain (Homo sapiens (Human))" measurementkind=IC50 result="< 10 nM"

Query :: Recorded IC50 of O=c1[nH]ncc2nc(N3CCCCC3)nc(Nc3ccc(CN4CCNCC4)cc3)c12 [Example 30, hydrochloride] , please.
Result :: < 50 nM

Query :: Recorded IC50 of N#CC1CCN(c2nc(Nc3ccc(CN4CCNCC4)cc3)c3c(=O)[nH]ncc3n2)CC1 [Example 56, hydrochloride] , please.
Result :: > 100 nM

* * *

- targetUnderTest: Syk (356-635 amino acids) catalytic domain (Homo sapiens (Human), UniProt P43405)
- testProtocol: Inhibition of enzymatic Syk kinase activity (radiometric)
- Assay type: biochemical
- Description: The objective of this assay was to examine by radiometric method the ability of compounds to inhibit Syk kinase enzyme. Syk is capable of phosphorylating substrates such as VAV, LAT, SLP-76, which in turn activate MAPK, PLCγ signaling pathways. […] This in vitro assay tests the ability of syk to phosphorylate a substrate peptide in the presence of ATP. […] The filter plate was dried and the radioactivity was measured on a scintillation counter to estimate the incorporated radioactivity on the substrate. […]
pIC50: −log10 of the molar value.
measurementKind: pIC50

Query :: Recorded pIC50 of O=C(OCOP(=O)(O)O)C1CC12CCN(c1ccc(Nc3nc(N4CCCCCC4)nc4cn[nH]c(=O)c34)cc1)CC2 (stereo not shown) , please.
Result :: > 8.00

* * *

In this section we review reported pIC50 values for a set of compounds.
- targetUnderTest: Syk (356-635 amino acids) catalytic domain (Homo sapiens (Human))
- testProtocol: Inhibition of enzymatic Syk kinase activity (radiometric)
- Format: biochemical
- conditionLabel: read-out: IC50 Syk
- Procedure: The objective of this assay was to examine by radiometric method the ability of compounds to inhibit Syk kinase enzyme. Syk is capable of phosphorylating substrates such as VAV, LAT, SLP-76, which in turn activate MAPK, PLCγ signaling pathways. […] This in vitro assay tests the ability of syk to phosphorylate a substrate peptide in the presence of ATP. […] The filter plate was dried and the radioactivity was measured on a scintillation counter to estimate the incorporated radioactivity on the substrate. […]
pIC50: −log10 of the molar value.

Query :: Recorded pIC50 of "CC(C)(CO)Oc1ccc(Nc2nc(N3CCCCCC3)nc3cn[nH]c(=O)c23)cc1" , please.
Result :: > 7.30

Query :: Recorded pIC50 of "O=c1[nH]ncc2nc(N3CCCCCC3)nc(Nc3ccc(OCCN4CCN(CCO)CC4)cc3)c12" , please.
Result :: > 7.00

Query :: Recorded pIC50 of N#CCC1CCN(c2nc(Nc3ccc(N4CCC5(CC4)CC5C(=O)O)nc3)c3c(=O)[nH]ncc3n2)CC1 (stereo not shown) , please.
Result :: > 7.30

* * *

- Test system: RBL2H3 cells
- testProtocol: Degranulation assay: β-hexosaminidase release during immune complex mediated degranulation
- Format: cell-based, rat
- conditionLabel: Rattus norvegicus, RBL-2H3; 1 μM; Assay Protocol A (24 well format); read-out: Degranulation % inhibition at 1 μM
Where a name gives a salt, the structure may show the parent alone.
In this section we review reported inhibition at 1 µM values for a set of compounds.
Expressed in %, but write only the number.

# count of solved cases: 5
compound="NCC(=O)N1CCN(c2ccc(Nc3nc(-c4ccccc4)nc4cn[nH]c(=O)c34)cc2)CC1 [Example 11, hydrochloride]" measurementkind="inhibition at 1 µM" result=100
compound=O=c1[nH]ncc2nc(-c3ccccc3)nc(Nc3ccc(N4CCOCC4)cc3)c12 measurementkind="inhibition at 1 µM" result=85
compound=O=c1[nH]ncc2nc(-c3ccccc3)nc(Nc3ccc(N(CCO)CCO)cc3)c12 measurementkind="inhibition at 1 µM" result=100
compound="O=C(O)C1CC12CCN(c1nc(Nc3ccc(CN4CCNCC4)cc3)c3c(=O)[nH]ncc3n1)CC2 (stereo not shown) [Example 25, hydrochloride]" measurementkind="inhibition at 1 µM" result=79
compound=O=C(O)C1CCN(c2ccc(Nc3nc(-c4ccccc4)nc4cn[nH]c(=O)c34)cc2)CC1 measurementkind="inhibition at 1 µM" result=100

Query :: Recorded inhibition at 1 µM of "O=c1[nH]ncc2nc(-c3ccccc3)nc(Nc3ccc(N4CCNCC4)cc3)c12" , please.
Result :: 98

Query :: Recorded inhibition at 1 µM of O=C(O)C1CC12CCN(c1ccc(Nc3nc(-c4ccccc4)nc4cn[nH]c(=O)c34)cc1)CC2 (stereo not shown) , please.
Result :: 100

Query :: Recorded inhibition at 1 µM of "CCN1CCN(Cc2ccc(Nc3nc(-c4ccccc4)nc4cn[nH]c(=O)c34)cc2)CC1" , please.
Result :: 50

Query :: Recorded inhibition at 1 µM of "CCN1CCN(c2ccc(Nc3nc(-c4ccccc4)nc4cn[nH]c(=O)c34)cc2)CC1" , please.
Result :: 100

Query :: Recorded inhibition at 1 µM of Cl.O=c1[nH]ncc2nc(-c3ccccc3)nc(Nc3ccc(CN4CCNCC4)cc3)c12 [Example 7, hydrochloride] , please.
Result :: 92

* * *

- targetUnderTest: Syk (356-635 amino acids) catalytic domain (Homo sapiens (Human))
- testProtocol: Inhibition of enzymatic Syk kinase activity (radiometric)
- Assay type: biochemical
- conditionLabel: read-out: IC50 Syk
Where a name gives a salt, the structure may show the parent alone.
In this section we review reported IC50 values for a set of molecules.

molecule="CC(C)(C(=O)O)C1CCN(c2ccc(Nc3nc(-c4ccccc4)nc4cn[nH]c(=O)c34)cc2)CC1 [Example 143]" targetundertest="Syk (356-635 amino acids) catalytic domain (Homo sapiens (Human))" measurementkind=IC50 result="< 50 nM"

Query :: Return IC50 measured with Syk (356-635 amino acids) catalytic domain (Homo sapiens (Human)) given this molecule: O=C(O)CC1CCN(c2ccc(Nc3nc(N4CCCCCC4)nc4cn[nH]c(=O)c34)cc2)CC1 [Example 69]
Result :: < 10 nM

Query :: Return IC50 measured with Syk (356-635 amino acids) catalytic domain (Homo sapiens (Human)) given this molecule: O=c1[nH]ncc2nc(-c3ccccc3)nc(Nc3ccc(CN4CCC5(CC4)COC5)cc3)c12 [Example 23]
Result :: < 50 nM

Query :: Return IC50 measured with Syk (356-635 amino acids) catalytic domain (Homo sapiens (Human)) given this molecule: COCCOc1ccc(Nc2nc(N3CCCCCC3)nc3cn[nH]c(=O)c23)cc1 [Example 324]
Result :: < 50 nM

Query :: Return IC50 measured with Syk (356-635 amino acids) catalytic domain (Homo sapiens (Human)) given this molecule: N#CCC1CCN(c2nc(Nc3ccc(N4CCC(CC(=O)O)CC4)nc3)c3c(=O)[nH]ncc3n2)CC1 [Example 116]
Result :: < 50 nM

Query :: Return IC50 measured with Syk (356-635 amino acids) catalytic domain (Homo sapiens (Human)) given this molecule: O=C(O)C1CC1C1CCN(c2ccc(Nc3nc(N4CCCCCC4)nc4cn[nH]c(=O)c34)cc2)CC1 (centres unmarked) [Example 131]
Result :: < 10 nM

Query :: Return IC50 measured with Syk (356-635 amino acids) catalytic domain (Homo sapiens (Human)) given this molecule: O=c1[nH]ncc2nc(N3CCCCCC3)nc(Nc3ccc(N4CCC(F)CC4)cc3)c12 [Example 289]
Result :: < 50 nM

Query :: Return IC50 measured with Syk (356-635 amino acids) catalytic domain (Homo sapiens (Human)) given this molecule: O=c1[nH]ncc2nc(-c3ccsc3)nc(Nc3ccc(CN4CCNCC4)cc3)c12 [Example 24, hydrochloride]
Result :: < 10 nM
